Entries and their TGI
system: HCT-116 colon; experiment: NCI tumour cell line growth inhibition, 48 h

# COMPOUND, TEST SYSTEM, TGI
records = [
    ("COC1O[C@H]2CCN(C(=O)OCc3ccccc3)[C@H]2[C@H]1OCc1ccccc1 (stereo partly drawn)", "HCT-116 colon", "> 100 µM"),
    ("c1ccc([P+](CCNCCNCC[P+](c2ccccc2)(c2ccccc2)c2ccccc2)(c2ccccc2)c2ccccc2)cc1", "HCT-116 colon", "> 100 µM"),
    ("Cc1cc([C@@H](C)Nc2ccccc2C(=O)O)c2nc(N3CCOCC3)cc(=O)n2c1", "HCT-116 colon", "> 10 µM"),
]

###

test system: KM12 colon; test: NCI tumour cell line growth inhibition, 48 h
Entries and their TGI
RESULT TYPE: TGI

# MOLECULE, TEST SYSTEM, OBSERVED RESULT
measured = [
    ("[N-]=[N+]=Nc1c(Cl)c(=O)n(-c2ccccc2)c2ccccc12", "KM12 colon", "> 100 µM"),
    ("O=C1CC2(C[C@@H]3CCCCCCCCC[C@@H](C3)C2)N1 (some centres not stated)", "KM12 colon", "34.6 µM"),
    ("Cc1ccccc1C(C#N)C(=O)C(=O)Nc1nc([N+](=O)[O-])cs1 (configuration not stated)", "KM12 colon", "> 100 µM"),
    ("CC(CO)(CO)N=Cc1cc(I)cc(I)c1O", "KM12 colon", "28.2 µM"),
    ("CCCCCCCCCC[C@@H](O)[C@H]1CC[C@H]([C@H]2CC[C@H]([C@H](O)CCCCCCCCCC[C@@H]3CC(CC(C)=O)C(=O)O3)O2)O1 (some centres not stated)", "KM12 colon", "> 50 µM"),
    ("Cc1cn(C2CC(N)C(CN)O2)c(=O)[nH]c1=O (configuration not stated)", "KM12 colon", "> 100 µM"),
    ("CCN1CCN(c2nc(NCCCNc3ccnc4cc(Cl)ccc34)c3ccccc3n2)CC1", "KM12 colon", "11.4 µM"),
    ("CCOP(=O)(OCC)[C@H](O)c1ccsc1", "KM12 colon", "> 100 µM"),
    ("COc1cccc(/C=C/C(=O)c2cc3c(N)c(C(=O)Nc4ccccc4C)sc3nc2C)c1", "KM12 colon", "3.62 µM"),
    ("COc1c(C2CC(=O)Nc3c2cnn3Cc2ccco2)cc2c(c1OC)OCO2 (configuration not stated)", "KM12 colon", "> 100 µM"),
    ("COC(=O)C1OC(O[C@H]2CCC3(C)C(CCC4(C)C3CC=C3C5CC(C)(C)CCC5(C(=O)O)CC[C@]34C)C2(C)C)C(O)C(OC2OC(CO)C(O)C(O)C2O)C1O (some centres not stated)", "KM12 colon", "28.9 µM"),
    ("COc1ccc(-c2nn(-c3cccc(Cl)c3)cc2C2CC(c3ccccc3)=NN2C(C)=O)cc1 (configuration not stated)", "KM12 colon", "> 100 µM"),
]

###

Entries and their TGI
tested on: A498 renal; test: NCI tumour cell line growth inhibition, 48 h
RESULT TYPE: TGI

# COMPOUND, OBSERVED RESULT
records = [
    ("COC1O[C@H]2CCN(C(=O)OCc3ccccc3)[C@H]2[C@H]1OCc1ccccc1 (stereo partly drawn)", "> 100 µM"),
    ("O=c1c2c3ccccc3[nH]c2c2cccc3c2n1CCC3", "> 100 µM"),
    ("CC(C)(C)OC(=O)NC(C)(C)C(=O)NCCC(=O)O", "> 100 µM"),
]

###

system: HL-60(TB) leukemia; assay: NCI tumour cell line growth inhibition, 48 h
RESULT TYPE: TGI

# COMPOUND, TEST SYSTEM, RESULT TYPE, OBSERVED RESULT
rows = [
    ("Cc1ccc2c(c1C)CC1(Cc3c(ccc4c3CCC4)C1=O)C2=O (configuration not stated)", "HL-60(TB) leukemia", "TGI", "> 100 µM"),
    ("c1sc(NC2=NCCO2)c2c1CCCC2", "HL-60(TB) leukemia", "TGI", "> 100 µM"),
    ("CC(=O)[CH-]C(=O)c1ccccc1.CC(=O)[CH-]C(=O)c1ccccc1.CCCCCCCCCCCCCCCCCC(=O)[O-].CCCCCCCCCCCCCCCCCC(=O)[O-].[Ti+4]", "HL-60(TB) leukemia", "TGI", "43.9 µM"),
    ("Cc1cn(C2C=CC(COP(=O)(OCC3=CC(=O)c4ccccc4C3=O)N(C)CCCCCl)O2)c(=O)[nH]c1=O (configuration not stated)", "HL-60(TB) leukemia", "TGI", "4.41 µM"),
    ("Fc1cccc(COc2ccc(Nc3ncncc3C#Cc3ccccc3)cc2Cl)c1", "HL-60(TB) leukemia", "TGI", "> 25 µM"),
    ("CN1CCN(CC#Cc2cccc(C(=O)c3cnn(-c4ccc(F)cc4)c3N)c2)CC1", "HL-60(TB) leukemia", "TGI", "> 25 µM"),
    ("COc1cc2oc(-c3ccc(O)cc3)c(OC3OC(C)C(O)C(O)C3O)c(=O)c2c(O)c1OC (configuration not stated)", "HL-60(TB) leukemia", "TGI", "> 100 µM"),
    ("COC1O[C@H]2CCN(C(=O)OCc3ccccc3)[C@H]2[C@H]1OCc1ccccc1 (some centres not stated)", "HL-60(TB) leukemia", "TGI", "68.6 µM"),
    ("Cc1c(S(=O)(=O)c2ccccc2)c(N)n(Cc2ccccc2)c1C", "HL-60(TB) leukemia", "TGI", "> 100 µM"),
    ("O=c1[nH]cnc2c(C3OC(CO)C(O)C3O)c[nH]c12 (configuration not stated)", "HL-60(TB) leukemia", "TGI", "> 100 µM"),
    ("c1ccc(C[P+]2(c3ccccc3)c3ccccc3-c3ccccc32)cc1", "HL-60(TB) leukemia", "TGI", "> 100 µM"),
    ("CC(C)(C)OC(=O)n1cc(CNC(=S)Nc2ccccc2)c2ccccc21", "HL-60(TB) leukemia", "TGI", "55.3 µM"),
    ("CCCCc1c(O)nc(Nc2nc3ccccc3[nH]2)[nH]c1=O", "HL-60(TB) leukemia", "TGI", "> 100 µM"),
    ("Nc1n[nH]c2ccc([C@@H]3Nc4ccc5[nH]ncc5c4[C@H]4[C@H]5CCC(C5)[C@H]43)cc12", "HL-60(TB) leukemia", "TGI", "0.654 µM"),
    ("CC1(C)CC2(C)CC1CC2O (configuration not stated)", "HL-60(TB) leukemia", "TGI", "> 100 µM"),
    ("CC(C)CC(N)C(=O)OCN1C(=O)C2C3C=CC(C2C1=O)C1C2C(=O)N(COC(=O)C(N)CC(C)C)C(=O)C2C31 (configuration not stated)", "HL-60(TB) leukemia", "TGI", "65.2 µM"),
    ("O=C(Nc1ccc(I)cc1C(=O)NCCO)c1cccs1", "HL-60(TB) leukemia", "TGI", "> 100 µM"),
]

###

tested on: HT29 colon; experiment: NCI tumour cell line growth inhibition, 48 h

# SMILES TEXT, GI50
measured = [
    ("COc1cc(/C=C\\[N+](=O)[O-])ccc1O", "2.98 µM"),
    ("O=[Se]([O-])c1ccccc1.O=[Se]([O-])c1ccccc1.[OH3+].[OH3+].[Pt+2]", "3.09 µM"),
    ("O=C(NNc1nc2c(F)cccc2n2cccc12)c1cnccn1", "0.604 µM"),
    ("Cc1nn(-c2ccc(F)cc2)c2ncnc(Nc3ccc(NC(=O)Nc4ccc(Cl)c(C(F)(F)F)c4)cc3)c12", "2.76 µM"),
]

###

system: UO-31 renal; assay: NCI tumour cell line growth inhibition, 48 h
Entries and their TGI

# MOLECULE, TGI
measured = [
    ("Cc1c(Cl)ccc2c(=O)c3cccc(CC(=O)O)c3oc12", "> 100 µM"),
    ("Oc1ccccc1C(c1cc2c(cc1O)OCO2)N1CCOCC1 (stereo not drawn)", "29.3 µM"),
    ("Cc1cc(=O)cc2sc3c(C)cccc3nc1-2", "> 100 µM"),
    ("COc1ccc(NC(=O)Nc2n[nH]c3ccccc23)cc1", "> 100 µM"),
    ("CCSc1nnc(CSc2nc(-c3ccccc3)c(-c3ccccc3)[nH]2)n1-c1ccccc1", "33 µM"),
    ("COC(=O)C1(Cc2ccccc2)Cc2cc3c(cc2C1=O)CCC3 (stereo not drawn)", "> 100 µM"),
    ("O=C1CCCN(c2ccccc2)N1", "> 100 µM"),
    ("C=CC(=O)c1ccc2c(c1)OCCOCCOCCOCCOCCO2", "> 58 µM"),
    ("COc1ccc(C2C(Cl)C(=O)N2NC(=O)c2ccc(NC(C)=O)cc2)cc1 (stereo not drawn)", "> 100 µM"),
    ("Brc1cccc(-c2cc(-c3ccc4c(c3)OCCO4)[nH]n2)c1", "36.6 µM"),
    ("C1COCCN1.C1COCCN1.N.N.[Cl-].[Pt+2]", "> 100 µM"),
    ("CC(C)(C)C(=O)C(CC(=O)c1ccccc1)C(=O)C(C)(C)C", "> 100 µM"),
    ("c1cc2nnc1SCCSCCSc1ccc(nn1)SCCSCCS2", "> 100 µM"),
]
